Ref: PubChem BioAssay AID2060494

# System: 435261-313-R-J1-PDC complex spheroid viability
# measurement_notes: Anticancer human tumor 435261-313-R-J1-PDC patient-derived colon adenocarcinoma cell line growth inhibition [GQUAD]; active = viability on the fitted dose curve at most 10% of control; inactive = the rest
# test_parameters: second compound 0.0316 µM; first compound 3.16 µM
Outcomes you can answer with include only these: active, inactive

Problem: Hi, do you know how COc1cccc2c1C(=O)c1c(O)c3c(c(O)c1C2=O)CC(O)(C(=O)CO)CC3OC1CC(N)C(O)C(C)O1 (stereo not given) + CN(C)c1ccc(Nc2c3ccc(NC(=O)CCN4CCCC4)cc3nc3cc(NC(=O)CCN4CCCC4)ccc23)cc1 came out in this test?
Result: active

Problem: Another: COc1ncnc(C2CC2)c1-c1ncc2cnn(Cc3ccc(-c4nc(C(F)(F)F)cn4C(C)C)cc3)c2n1 + CN(C)c1ccc(Nc2c3ccc(NC(=O)CCN4CCCC4)cc3nc3cc(NC(=O)CCN4CCCC4)ccc23)cc1
Result: inactive

Problem: Query Cc1cccc(N(C)C(=O)C2C(O)CCN2c2nc(C)cc(C(F)(F)F)c2C#N)c1 (stereo not given) + Cc1cnc(CNC(=O)c2c(=O)c3ccc(N4CCCN(C)CC4)nc3n3c2sc2ccccc23)cn1 next
Result: inactive

Problem: Moving on to the next molecule: Cc1cccc(N(C)C(=O)C2C(O)CCN2c2nc(C)cc(C(F)(F)F)c2C#N)c1 (stereo not given) + Cc1[nH]c2ccc(F)cc2c1-c1nc2c3cccnc3c3ncccc3c2[nH]1
Result: inactive

Problem: // next record COc1cc(C2c3cc4c(cc3C(OC3OC5COC(C)OC5C(O)C3O)C3COC(=O)C23)OCO4)cc(OC)c1O (stereo not given) + CN(C)c1ccc(Nc2c3ccc(NC(=O)CCN4CCCC4)cc3nc3cc(NC(=O)CCN4CCCC4)ccc23)cc1
Result: inactive

----------
Please provide measured viability, T/C for the entries that follow.
# System: 435261-313-R-J1-PDC complex spheroid viability
# measurement_notes: Anticancer human tumor 435261-313-R-J1-PDC cell line growth inhibition [GQUAD]
# test_parameters: second compound 0.1 µM; first compound 0.1 µM; active compounds read low
I only need the number, in %, no unit after it.

Problem: What value of viability, T/C has been recorded for this entry: COc1cccc2c1C(=O)c1c(O)c3c(c(O)c1C2=O)CC(O)(C(=O)CO)CC3OC1CC(N)C(O)C(C)O1 (stereo not drawn) + Cc1cnc(CNC(=O)c2c(=O)c3ccc(N4CCCN(C)CC4)nc3n3c2sc2ccccc23)cn1
Result: 53.1

Problem: # repeat for C=CC(=O)N1CCN(c2nc(=O)n(-c3c(C)ccnc3C(C)C)c3nc(-c4c(O)cccc4F)c(F)cc23)C(C)C1 (stereo not drawn) + Cc1cnc(CNC(=O)c2c(=O)c3ccc(N4CCCN(C)CC4)nc3n3c2sc2ccccc23)cn1
Result: 63.3

Problem: Follow-up item: COc1ccc([C@@H](O)c2cc(-c3ncnc4cc(N5CCOCC5)ccc34)c(F)cc2Cl)nn1 + Cc1cnc(CNC(=O)c2c(=O)c3ccc(N4CCCN(C)CC4)nc3n3c2sc2ccccc23)cn1
Result: 65

----------
# Test system: 435261-313-R-J1-PDC complex spheroid viability
# measurement_notes: Anticancer human tumor 435261-313-R-J1-PDC cell line growth inhibition [GQUAD];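 note: spheroids exposed to the agents for seven days before readout; percent of vehicle control viability with DMSO wells as 100%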
# test_parameters: second compound 0.1 µM; first compound 10 µM; active compounds read low
Assign viability, T/C to each entry below.
Quick note: give the figure in %, leave out the unit.

Problem: Reported viability, T/C, compound CCCS(=O)(=O)Nc1ccc(F)c(C(=O)c2c[nH]c3ncc(-c4ccc(Cl)cc4)cc23)c1F + Cc1[nH]c2ccc(F)cc2c1-c1nc2c3cccnc3c3ncccc3c2[nH]1 : ____
Result: 15.5

Problem: How about this compound: CC(=O)O[C@H]1C(=O)[C@@]2(C)[C@H]([C@H](OC(=O)c3ccccc3)[C@]3(O)C[C@H](OC(=O)[C@H](O)[C@@H](NC(=O)c4ccccc4)c4ccccc4)C(C)=C1C3(C)C)[C@]1(OC(C)=O)CO[C@@H]1C[C@@H]2O + Cc1[nH]c2ccc(F)cc2c1-c1nc2c3cccnc3c3ncccc3c2[nH]1
Result: 71

Problem: Same read-out for CC1COCCN1c1cc(C2(O)CC3CCC(C2)O3)c2cnn(-c3ccn[nH]3)c2n1 (stereo not given) + CN(C)c1ccc(Nc2c3ccc(NC(=O)CCN4CCCC4)cc3nc3cc(NC(=O)CCN4CCCC4)ccc23)cc1 ?
Result: 10.8

Problem: # iterate: O=c1[nH]cc(F)c(=O)[nH]1 + Cc1[nH]c2ccc(F)cc2c1-c1nc2c3cccnc3c3ncccc3c2[nH]1
Result: 61.3

Problem: Another compound to check: O=c1[nH]cc(F)c(=O)[nH]1 + CN(C)c1ccc(Nc2c3ccc(NC(=O)CCN4CCCC4)cc3nc3cc(NC(=O)CCN4CCCC4)ccc23)cc1
Result: 78.6

----------
# Test system: 435261-313-R-J1-PDC complex spheroid viability
# measurement_notes: Anticancer human tumor 435261-313-R-J1-PDC cell line growth inhibition [GQUAD];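 note: spheroids exposed to the agents for seven days before readout; percent of vehicle control viability with DMSO wells as 100%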
# test_parameters: second compound 0.0316 µM; first compound 0.316 µM; active compounds read low
observed_property: viability, T/C (%)
Answer in %, number only, no unit symbol.

Problem: Given CCc1c2c(nc3ccc(O)cc13)-c1cc3c(c(=O)n1C2)COC(=O)[C@]3(O)CC + Cc1cnc(CNC(=O)c2c(=O)c3ccc(N4CCCN(C)CC4)nc3n3c2sc2ccccc23)cn1 , state its recorded viability, T/C.
Result: 30.9

Problem: Proceed to COc1cc(C2c3cc4c(cc3C(OC3OC5COC(C)OC5C(O)C3O)C3COC(=O)C23)OCO4)cc(OC)c1O (stereo not given) + Cc1cnc(CNC(=O)c2c(=O)c3ccc(N4CCCN(C)CC4)nc3n3c2sc2ccccc23)cn1
Result: 60.8

Problem: Queued: CC[C@@]1(O)C(=O)OCc2c1cc1n(c2=O)Cc2cc3c(CN(C)C)c(O)ccc3nc2-1 + Cc1cnc(CNC(=O)c2c(=O)c3ccc(N4CCCN(C)CC4)nc3n3c2sc2ccccc23)cn1
Result: 72.1

Problem: And the next one, C=CCn1c(=O)c2cnc(Nc3ccc(N4CCN(C)CC4)cc3)nc2n1-c1cccc(C(C)(C)O)n1 + CN(C)c1ccc(Nc2c3ccc(NC(=O)CCN4CCCC4)cc3nc3cc(NC(=O)CCN4CCCC4)ccc23)cc1 ?
Result: 84.1

Problem: Then what about the compound Cc1cccc(N(C)C(=O)C2C(O)CCN2c2nc(C)cc(C(F)(F)F)c2C#N)c1 (stereo not given) + Cc1cnc(CNC(=O)c2c(=O)c3ccc(N4CCCN(C)CC4)nc3n3c2sc2ccccc23)cn1 ?
Result: 73.3

----------
# Tested on: 435261-313-R-J1-PDC complex spheroid viability
# measurement_notes: Anticancer human tumor 435261-313-R-J1-PDC cell line growth inhibition [GQUAD];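 note: spheroids exposed to the agents for seven days before readout; percent of vehicle control viability with DMSO wells as 100%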
# test_parameters: second compound 0.0316 µM; first compound 0.0316 µM; active compounds read low
Consider the following compounds; for each one, report its viability, T/C.
Please reply with the bare figure in % and do not write the unit itself.

Problem: What viability, T/C appears in the records for this compound with 435261-313-R-J1-PDC complex spheroid viability? CC(C)n1c(=O)n(C)c2cnc3cc(F)c(-c4ccc(OCCCN5CCCCC5)nc4)cc3c21 + CN(C)c1ccc(Nc2c3ccc(NC(=O)CCN4CCCC4)cc3nc3cc(NC(=O)CCN4CCCC4)ccc23)cc1
Result: 127

Problem: Same read-out for CC1COCCN1c1cc(C2(O)CC3CCC(C2)O3)c2cnn(-c3ccn[nH]3)c2n1 (stereo not given) + CN(C)c1ccc(Nc2c3ccc(NC(=O)CCN4CCCC4)cc3nc3cc(NC(=O)CCN4CCCC4)ccc23)cc1 ?
Result: 63

Problem: Also C=CCn1c(=O)c2cnc(Nc3ccc(N4CCN(C)CC4)cc3)nc2n1-c1cccc(C(C)(C)O)n1 + Cc1cnc(CNC(=O)c2c(=O)c3ccc(N4CCCN(C)CC4)nc3n3c2sc2ccccc23)cn1 ?
Result: 67.6

Problem: Item: C#Cc1c(F)ccc2cc(O)cc(-c3ncc4c(N5CC6CCC(C5)N6)nc(OCC56CCCN5CC(F)C6)nc4c3F)c12 (stereo not given) + Cc1[nH]c2ccc(F)cc2c1-c1nc2c3cccnc3c3ncccc3c2[nH]1
Result: 94.8

Problem: Also COc1cccc2c1C(=O)c1c(O)c3c(c(O)c1C2=O)CC(O)(C(=O)CO)CC3OC1CC(N)C(O)C(C)O1 (stereo not given) + CN(C)c1ccc(Nc2c3ccc(NC(=O)CCN4CCCC4)cc3nc3cc(NC(=O)CCN4CCCC4)ccc23)cc1 , if possible.
Result: 83.2

----------
# Test system: 435261-313-R-J1-PDC complex spheroid viability
# measurement_notes: Anticancer human tumor 435261-313-R-J1-PDC cell line growth inhibition [GQUAD]; active = viability on the fitted dose curve at most 10% of control; inactive = the rest;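 note: spheroids exposed to the agents for seven days before readout; percent of vehicle control viability with DMSO wells as 100%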
# test_parameters: second compound 3.16 µM; first compound 0.1 µM
Result category, one only: active, inactive

Problem: Identify the outcome logged in this assay for the compound shown: CC(=O)O[C@H]1C(=O)[C@@]2(C)[C@H]([C@H](OC(=O)c3ccccc3)[C@]3(O)C[C@H](OC(=O)[C@H](O)[C@@H](NC(=O)c4ccccc4)c4ccccc4)C(C)=C1C3(C)C)[C@]1(OC(C)=O)CO[C@@H]1C[C@@H]2O + CN(C)c1ccc(Nc2c3ccc(NC(=O)CCN4CCCC4)cc3nc3cc(NC(=O)CCN4CCCC4)ccc23)cc1
Result: inactive

Problem: Also CC1COCCN1c1cc(-c2ccnn2C)c2ccnc(-c3ccn[nH]3)c2n1 (stereo not given) + Cc1cnc(CNC(=O)c2c(=O)c3ccc(N4CCCN(C)CC4)nc3n3c2sc2ccccc23)cn1 ?
Result: inactive

Problem: Let us now turn to C#Cc1c(F)ccc2cc(O)cc(-c3ncc4c(N5CC6CCC(C5)N6)nc(OCC56CCCN5CC(F)C6)nc4c3F)c12 (stereo not given) + CN(C)c1ccc(Nc2c3ccc(NC(=O)CCN4CCCC4)cc3nc3cc(NC(=O)CCN4CCCC4)ccc23)cc1
Result: inactive

Problem: Then what about the compound C#Cc1c(F)ccc2cc(O)cc(-c3ncc4c(N5CC6CCC(C5)N6)nc(OCC56CCCN5CC(F)C6)nc4c3F)c12 (stereo not given) + Cc1cnc(CNC(=O)c2c(=O)c3ccc(N4CCCN(C)CC4)nc3n3c2sc2ccccc23)cn1 ?
Result: active

Problem: What do we get for O=c1[nH]cc(F)c(=O)[nH]1 + Cc1cnc(CNC(=O)c2c(=O)c3ccc(N4CCCN(C)CC4)nc3n3c2sc2ccccc23)cn1 ?
Result: inactive
